# Test system: A549
# measurement_notes: Antiproliferative activity against human A549 cells incubated for 48 hrs by Alamar blue staining based assay
# protocol_conditions: A549, 48 h
Known pIC50 of a selection of compounds
Scale: pIC50 equals -log10([C]), with [C] in mol/L.

In [3]: df
Out[3]:
                                 smiles_str  property_name  endpoint_result
0  Cc1ccc(S(=O)(=O)N2CCN(CC(=O)c3cnc4ncccn34)CC2)cc1          pIC50             6.00

Determine from records and report pIC50 for Nc1cccc(S(=O)(=O)N2CCCN(S(=O)(=O)c3ccc4c(c3)OCCO4)CC2)c1
5.84

Determine from records and report pIC50 for COc1ccc(-c2ccc(S(=O)(=O)N3CCN(CC(=O)c4cnc5ncccn45)CC3)cc2)cc1
5.80

Determine from records and report pIC50 for O=C(CN1CCN(S(=O)(=O)c2ccc(F)cc2Cl)CC1)c1cnc2ccccn12
6.02

Determine from records and report pIC50 for COc1ccc(S(=O)(=O)N2CCN(CC(=O)c3cnc4ccccn34)CC2)cc1
5.74

Determine from records and report pIC50 for COc1ccc(Br)cc1S(=O)(=O)N1CCN(CC(=O)c2cnc3ccccn23)CC1
5.84
